tested on: SNB-75 CNS; experiment: NCI-60 one-dose screen, 48 h (100 = growth as untreated, 0 = no growth, -100 = all killed); conditions: 10 µM unless noted
About 83,000 compounds went through this panel and 20% of them were active in at least one assay; those are over-represented in the sample as a whole.
Reported values of growth for individual entries

{"columns": ["compound", "output-unit", "growth"],
 "data": [
  ["C/C(Cc1ccc(Cl)cc1)=C(\\c1ccc(OCCN2CCOCC2)cc1)c1ccc(OC(=O)Cc2ccccc2)cc1", "%", 89.6],
  ["COC(=O)[C@@H](C)C[C@H](Cc1ccccc1)NC(=O)c1csc([C@@H](C[C@H](C(C)C)N(C)C(=O)[C@@H](NC(=O)[C@H]2CCCCN2C)C(C(F)(F)F)C(F)(F)F)OC(C)=O)n1", "%", 14.9],
  ["CC[C@H](C)[C@H](NC(=O)C12C3C4C1C1C2C3C41NC(C)=O)C(=O)N(C)[C@H](C[C@@H](OC(C)=O)c1nc(C(=O)N[C@@H](Cc2ccccc2)C[C@H](C)C(=O)OC)cs1)C(C)C (some centres not stated)", "%", 38.6],
  ["Cc1ccc(C(=O)NCCCOc2ccc(N3C(N)=NC(N)=NC3(C)C)cc2Cl)cc1S(=O)(=O)F", "%", 87.6],
  ["C=C(C)[C@@]12OC3(/C=C/C=C/CCCCC)O[C@@H]1[C@@H]1[C@@H]4O[C@]4(CO)[C@@H](O)[C@]4(O)C(=O)C(C)=C[C@H]4[C@@]1(O3)[C@H](C)[C@H]2OC(=O)c1ccccc1", "%", 56.6],
  ["COC(=O)[C@@H](C)C[C@H](Cc1ccccc1)NC(=O)c1csc(CC[C@H](C(C)C)N(C)C(=O)[C@@H](NC(=O)[C@H]2CCCCN2C)C(C)C)n1", "%", 42.6],
  ["CN(C)C(=O)Oc1ccc(Br)cc1", "%", 89]
]}

====

System: SW-620 colon
Assay: NCI-60 one-dose screen, 48 h (100 = growth as untreated, 0 = no growth, -100 = all killed)
Conditions: 10 µM unless noted
Experimental: Growth inhibition of the SW-620 human tumor cell line is measured as a screen for anti-cancer activity. Cells are grown in 96 well plates and exposed to the test compound for 48 hours. Compounds are tested at a single concentration, which is 10^-5 M for most compounds. The reported endpoint is percent growth (GI% or GIPRCNT), where numbers from 0 - 100% represent growth inhibition, and numbers from -100% - 0 represent cell death. For example, a value of 40 represents 60% growth inhibition. […]
This is part of a sample that, as a whole, favours compounds with a hit. Of some 83,000 tested, about 20% had one in any assay.

{"columns": ["compound", "growth, %"],
 "data": [
  ["CCN(CCO)C(Cc1ccccc1)c1ccccc1 (centres undefined)", 96.4],
  ["CCC1(C)CC(CCNCc2ccccc2O)(c2ccc(C)cc2)CCO1 (centres undefined)", 103],
  ["C=C(C)[C@@]12OC3(/C=C/C=C/CCCCC)O[C@@H]1[C@@H]1[C@@H]4O[C@]4(CO)[C@@H](O)[C@]4(O)C(=O)C(C)=C[C@H]4[C@@]1(O3)[C@H](C)[C@H]2OC(=O)c1ccccc1", 58.9],
  ["Cn1cc(C2=C(c3cn(C4CCN(Cc5ccccn5)CC4)c4ccccc34)C(=O)NC2=O)c2ccccc21", 47.8]
]}
